Molecular target: human plasma renin activity (Homo sapiens)
Construct: the human plasma contain and the substrate: angiotensinogen, and the enzyme: renin; from tissue; host or cells: pool of human plasma
Sequence (P00797 67-406): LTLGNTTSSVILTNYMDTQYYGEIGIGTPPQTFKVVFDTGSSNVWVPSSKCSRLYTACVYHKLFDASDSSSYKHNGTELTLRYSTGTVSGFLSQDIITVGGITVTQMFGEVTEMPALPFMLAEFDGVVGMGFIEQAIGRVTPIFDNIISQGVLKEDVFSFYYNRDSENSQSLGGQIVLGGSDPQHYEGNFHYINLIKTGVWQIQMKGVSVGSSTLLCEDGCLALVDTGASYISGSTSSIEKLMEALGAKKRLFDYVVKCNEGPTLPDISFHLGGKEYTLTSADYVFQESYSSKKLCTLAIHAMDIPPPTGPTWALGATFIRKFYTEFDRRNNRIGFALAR
Test: Inhibition of the human plasma renin activity (P.R.A.)
Format: biochemical
Conditions: pH 7.4, phosphate buffer, incubation 60 minutes, 37° C., pool of human plasma; read-out: INHIBITION OF HUMAN P.R.A. (IC50) pH 7.4
Non-standard residues stand in square brackets, D forms with d. Residues, ends and D or L forms follow the SMILES beside them. *: point of attachment. Benzylsulfonyl = O=S(=O)(Cc1ccccc1)*; Sta = CC(C)C[C@H](N)[C@@H](O)CC(=O)O; Isovaleryl = CC(C)CC(=O)*; Cbz = O=C(OCc1ccccc1)*
measurement-type: pIC50
Give bare numbers, as −log10 of the molar value.

Please look at the items below and tell me pIC50 for each one, in order.
1. COC(=O)C[C@H](O)[C@H](CC(C)C)NC(=O)[C@H](C)NC(=O)C[C@H](O)[C@H](CC(C)C)NC(=O)[C@H](CCCCNC(=O)OCc1ccccc1)NC(=O)[C@H](Cc1ccccc1)NC(=O)CC(C)C [SR 42130, iVa--Phe--Lys(Z)--Sta--Ala--Sta--OMe] (Isovaleryl-FK(Cbz)[Sta]A[Sta]-OMe)
2. COC(=O)C[C@H](O)[C@H](CC(C)C)NC(=O)[C@H](C)NC(=O)C[C@H](O)[C@H](CC(C)C)NC(=O)[C@H](Cc1ccccc1)NC(=O)[C@H](Cc1ccccc1)NS(=O)(=O)Cc1ccccc1 [SR 41939] (Benzylsulfonyl-FF[Sta]A[Sta]-OMe)

RESULT:
5.59
6.06
